Values compiled from ChEMBL document CHEMBL1153316.

Entries and their measured Activity follow.
assay: Inhibition of chymotrypsin assessed as residual proteolytic activity at 0.5 mM
Peptide text beside a SMILES is read from it.
Assay Metric: Activity

compound="CSCC[C@H](NC(=O)[C@@H]1CCCN1C(=O)[C@@H](N)CO)C(=O)N[C@@H](Cc1ccccc1)C(=O)N[C@@H](CCCCN)C(=O)NCC(=O)N[C@H](C(=O)CCl)C(C)C (HELM PEPTIDE1{S.P.M.F.K.G.V.[ClC[*:1]]}$$$$V2.0)" measurement=92%
compound="CSCC[C@H](NC(=O)[C@H](CCSC)NC(=O)[C@@H]1CCCN1)C(=O)NCC(=O)N[C@@H](CCCCN)C(=O)N[C@@H](C)C(=O)N[C@@H](CO)C(=O)N1CCC[C@H]1C(=O)N[C@H](C(=O)CCl)C(C)C (HELM PEPTIDE1{P.M.M.G.K.A.S.P.V.[ClC[*:1]]}$$$$V2.0)" measurement=53%
compound="CSCC[C@H](NC(=O)[C@H](CCSC)NC(=O)[C@@H]1CCCN1C(=O)[C@H](CC(C)C)NC(=O)[C@@H](NC(=O)[C@H](CC(N)=O)NC(=O)[C@H](Cc1ccccc1)NC(=O)[C@@H](N)C(C)C)[C@@H](C)O)C(=O)NCC(=O)N[C@@H](CCCCN)C(=O)N[C@@H](C)C(=O)N[C@@H](CO)C(=O)N1CCC[C@H]1C(=O)N[C@H](C(=O)CCl)C(C)C (HELM PEPTIDE1{V.F.N.T.L.P.M.M.G.K.A.S.P.V.[ClC[*:1]]}$$$$V2.0)" measurement=22%
compound="CC(C)[C@H](NC(=O)[C@H](CCCNC(=N)N)NC(=O)CNC(=O)[C@@H](N)CO)C(=O)N[C@H](C(=O)N1CCC[C@H]1C(=O)NCC(=O)N[C@@H](Cc1ccc(O)cc1)C(=O)NCC(=O)N[C@@H](Cc1cnc[nH]1)C(=O)N[C@@H](C)C(=O)CCl)C(C)C (HELM PEPTIDE1{S.G.R.V.V.P.G.Y.G.H.A.[ClC[*:1]]}$$$$V2.0)" measurement=69%
compound="CSCC[C@H](NC(=O)[C@H](CCSC)NC(=O)[C@@H]1CCCN1C(=O)[C@H](CC(C)C)NC(=O)[C@@H](NC(=O)[C@H](CC(N)=O)NC(=O)[C@H](Cc1ccccc1)NC(=O)[C@@H](NC(=O)[C@@H]1CCCN1)C(C)C)[C@@H](C)O)C(=O)NCC(=O)N[C@@H](CCCCN)C(=O)N[C@@H](C)C(=O)N[C@@H](CO)C(=O)N1CCC[C@H]1C(=O)N[C@H](C(=O)CCl)C(C)C (HELM PEPTIDE1{P.V.F.N.T.L.P.M.M.G.K.A.S.P.V.[ClC[*:1]]}$$$$V2.0)" measurement=48%
compound="CC[C@H](C)[C@H](N)C(=O)N[C@@H](Cc1c[nH]c2ccccc12)C(=O)N[C@@H](CC(N)=O)C(=O)N[C@H](C(=O)N[C@@H](CC(C)C)C(=O)N[C@@H](CC(N)=O)C(=O)N[C@@H](CO)C(=O)NCC(=O)N[C@@H](CCCNC(=N)N)C(=O)N[C@H](C(=O)N[C@H](C(=O)N1CCC[C@H]1C(=O)NCC(=O)N[C@H](C(=O)NCC(=O)N[C@@H](Cc1cnc[nH]1)C(=O)N[C@@H](C)C(=O)CCl)[C@@H](C)O)C(C)C)C(C)C)[C@@H](C)O (HELM PEPTIDE1{I.W.N.T.L.N.S.G.R.V.V.P.G.T.G.H.A.[ClC[*:1]]}$$$$V2.0)" measurement=78%
